# TARGET_DESC: BACE2 (Homo sapiens (Human), UniProt Q9Y5Z0)
# Sequence (Q9Y5Z0 63-518): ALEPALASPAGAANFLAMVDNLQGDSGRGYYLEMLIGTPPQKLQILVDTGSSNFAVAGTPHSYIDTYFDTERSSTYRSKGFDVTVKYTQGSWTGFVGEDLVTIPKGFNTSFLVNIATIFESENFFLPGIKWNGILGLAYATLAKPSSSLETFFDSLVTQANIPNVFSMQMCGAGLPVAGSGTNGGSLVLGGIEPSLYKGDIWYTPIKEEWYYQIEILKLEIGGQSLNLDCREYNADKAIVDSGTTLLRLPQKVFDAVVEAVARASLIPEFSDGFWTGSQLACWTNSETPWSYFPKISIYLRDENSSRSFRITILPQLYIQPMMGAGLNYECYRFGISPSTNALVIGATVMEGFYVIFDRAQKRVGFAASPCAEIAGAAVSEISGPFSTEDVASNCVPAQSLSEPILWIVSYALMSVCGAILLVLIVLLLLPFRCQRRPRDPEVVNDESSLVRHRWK
# METHOD_NOTES: In vitro enzymatic BACE2 FRET assay
# Format: biochemical
# CONDITION_NOTES: read-out: IC50 IP (μM) BACE2 Enzyme
PROPERTY_MEASURED: IC50 (µM)
Only the number, expressed in µM, is required.

Which IC50 reading was recorded for the compound CN(C)C(=O)[C@]12C[C@H]1[C@@](C)(c1cc(/C(F)=C/c3ccc(C#N)cc3)ccc1F)N=C(N)S2 [Example 221] ?
0.302

I'd like to know its IC50. The compound in question is C[C@@H]1[C@H](F)CCN1C(=O)[C@]12C[C@H]1[C@@](C)(c1cc(/C=C(\F)c3ccc(C#N)cn3)ccc1F)N=C(N)S2 [Example 307]
0.1

Record request: IC50 value, item COC[C@]12C[C@H]1[C@@](C)(c1cc(/C=C(\F)c3cnc(OCc4cc(C)on4)cn3)ccc1F)N=C(N)S2 [Example 275]
1.2

# IC50 lookup, item CNC(=O)[C@]12C[C@H]1[C@@](C)(c1cc(/C=C(\F)c3ccc(C#N)cn3)ccc1F)N=C(N)S2 [Example 222]
0.091

Any idea what IC50 was measured for Cc1cc(COc2cnc(/C(F)=C/c3ccc(F)c([C@@]4(C)N=C(N)S[C@@]5(C(=O)N(C)C)C[C@H]54)c3)cn2)on1 [Example 218] ?
0.033

If you can, please state the reported IC50 value of CC(C)[C@H]1CN(C(=O)[C@]23C[C@H]2[C@@](C)(c2cc(/C=C(\F)c4ccc(C#N)cn4)ccc2F)N=C(N)S3)CCO1 [Example 316] .
0.033

---

# TARGET_DESC: BACE2 (Homo sapiens (Human), UniProt Q9Y5Z0)
# METHOD_NOTES: In vitro enzymatic BACE2 FRET assay
# Assay type: biochemical
# CONDITION_NOTES: read-out: IC50 IP (μM) BACE2 Enzyme
PROPERTY_MEASURED: IC50 (µM)
State just the number; it will be interpreted in µM.

For CN(C)C(=O)[C@]12C[C@H]1[C@@](C)(c1cc(/C=C(\F)c3ccc(C#N)s3)ccc1F)N=C(N)S2 , what is its reported IC50?
0.002

Entry COCCOc1cnc(/C(F)=C/c2ccc(F)c([C@@]3(C)N=C(N)S[C@@]4(C(=O)N(C)C)C[C@H]43)c2)cn1 : reported IC50 = ?
0.072

Field request: IC50 | item: C[C@]1(c2cc(/C=C(\F)c3ccc(Cl)cn3)ccc2F)N=C(N)S[C@@]2(CC#N)C[C@H]21
0.0555

Quick one: IC50 for C[C@]1(c2cc(/C=C(\F)c3ccc(C#N)cn3)ccc2F)N=C(N)S[C@@]2(C(=O)N3CC4CC3CO4)C[C@H]21 (some centres unmarked) ?
0.0758

Requested field: IC50. Item: CN(C)C(=O)[C@]12C[C@H]1[C@@](C)(c1cc(/C=C(\F)c3cnc(C#N)cn3)ccc1F)N=C(N)S2
0.0174

Fill in the blank: the reported IC50 of C[C@H]1CN(C(=O)[C@]23C[C@H]2[C@@](C)(c2cc(/C=C(\F)c4ccc(C#N)cn4)ccc2F)N=C(N)S3)C[C@H](C)O1 is ____.
0.192

# get_value(readout='IC50', item= C[C@]1(c2cc(/C=C(\F)c3ccc(C#N)cn3)ccc2F)N=C(N)S[C@@]2(C(=O)N3CC[C@H](F)C3)C[C@H]21 )
0.0519

Value lookup for IC50; key = C#CCOc1cnc(/C(F)=C/c2ccc(F)c([C@@]3(C)N=C(N)S[C@@]4(C(N)=O)C[C@H]43)c2)cn1
0.177

Form field: reported IC50 of CC(C)[C@@H]1COCCN1C(=O)[C@]12C[C@H]1[C@@](C)(c1cc(/C=C(\F)c3ccc(C#N)cn3)ccc1F)N=C(N)S2
0.03

What value of measured IC50 is listed for CN(C)C(=O)[C@]12C[C@H]1[C@@](C)(c1cc(/C=C(\F)c3cnc(OCC4CC4)cn3)ccc1F)N=C(N)S2 ?
0.044

Param item = COC[C@]12C[C@H]1[C@@](C)(c1cc(/C=C(\F)c3ccc(Cl)cn3)ccc1F)N=C(N)S2 ; retrieve measured IC50.
0.069

Quick one: IC50 for C#Cc1cnc(/C(F)=C/c2ccc(F)c([C@@]3(C)N=C(N)S[C@@]4(C(=O)N(C)C)C[C@H]43)c2)cn1 ?
0.01

Bench note: what IC50 did COC[C@]12C[C@H]1[C@@](C)(c1cc(/C=C(\F)c3cnc(C#N)cn3)ccc1F)N=C(N)S2 show?
0.259

Could you share which IC50 value was measured for COC[C@]12C[C@H]1[C@@](C)(c1cc(/C=C(\F)c3cnc(OCC4CCO4)cn3)ccc1F)N=C(N)S2 (some centres unmarked) ?
5.11
